All figures here come from patent US7183301B2.

Could you please report measured melting point for the items listed next?
# unit: °C | format: bare number

Look up melting point for this compound: "COC(=S)NC[C@H]1CN(c2ccc(N3CCN(Cc4ccccc4)C3=O)c(F)c2)C(=O)O1"
174

Look up melting point for this compound: "CC(=S)NC[C@H]1CN(c2cc(F)c(N3CCOC3=O)c(F)c2)C(=O)O1"
168

Look up melting point for this compound: "COC(=S)NC[C@H]1CN(c2ccc(N3CC(=S)N(C)C3)c(F)c2)C(=O)O1"
223

Look up melting point for this compound: "COC(=S)NC[C@H]1CN(c2ccc(N3CCN(c4ccccc4)C3=O)c(F)c2)C(=O)O1"
195

Look up melting point for this compound: "COC(=S)NC[C@H]1CN(c2ccc(N3CC(=O)N(Cc4ccccc4)C3)c(F)c2)C(=O)O1"
192

Look up melting point for this compound: "COC(=S)NC[C@H]1CN(c2ccc(N3CCOC3=S)c(F)c2)C(=O)O1"
197

Look up melting point for this compound: "COC(=S)NC[C@H]1CN(c2ccc(N3CCN(Cc4ccccc4)C3=O)cc2)C(=O)O1"
160
